test system: CCRIS mutagenicity, Ames/micronucleus/aberration tests; test: CCRIS mutagenicity studies; conditions: Test System: AMES SALMONELLA TYPHIMURIUM; Strain/Indicator: TA100; Metabolic Activation: NONE; Method: PREINCUBATION
The source made the active and inactive calls. No rule for the calls is given here.
Respond using exactly one of the listed classes: true = active, false = inactive

In this assay, the call recorded for "CCCCCCCCc1ccc(Nc2ccc(CCCCCCCC)cc2)cc1" was what? false

In this assay, the call recorded for "OCCOCCOCCO" was what? false

In this assay, the call recorded for "O=[N+]([O-])c1ccc(S(=O)(=O)O)cc1" was what? false

In this assay, the call recorded for CNCc1ccc(CSCCNC(=NCC(O)c2ccc(O)cc2)NS(C)(=O)=O)o1 (configuration not stated) was what? false

In this assay, the call recorded for "CCOCCOC(=O)/C=C/c1ccc(OC)cc1" was what? false

In this assay, the call recorded for "Cc1nccnc1C" was what? false

In this assay, the call recorded for "N=C(N)S(=O)O" was what? false

In this assay, the call recorded for CC(Cl)CCCC(Cl)CCCC(Cl)CCCC(Cl)CCCC(Cl)CCCC(Cl)CCCl (configuration not stated) was what? false

In this assay, the call recorded for "C/C=C\C(=O)O[C@@H]1C[C@H]2O[C@@H]3C=C(C)C(=O)C[C@]3(C)[C@]1(C)[C@]21CO1" was what? false

In this assay, the call recorded for O=C1OC(O)C(C(Cl)Cl)=C1Cl (configuration not stated) was what? true

In this assay, the call recorded for "CCC[C@]1(O)CC[C@H]2[C@@H]3CC[C@H]4CC(=O)C[C@H](C)[C@]4(C)[C@H]3CC[C@@]21C" was what? false

In this assay, the call recorded for C=C(C)/C([O-])=N/[N+](C)(C)CC(C)O (configuration not stated) was what? false

----------
test system: CCRIS mutagenicity, Ames/micronucleus/aberration tests; experiment: CCRIS mutagenicity studies; conditions: Test System: Ames Salmonella typhimurium; Strain/Indicator: TA102; Metabolic Activation: Rat, Liver, S-9, Aroclor 1254 in 0.154 M KCl; Method: Preincubation
Active and inactive are the calls of the source. No rule for the calls is given here.
Respond using exactly one of the listed classes: 1.0 (active), 0.0 (inactive)

In this assay, the call recorded for "O=C(O)c1cc(O)c2c(c1)C(=O)c1cccc(O)c1C2=O" was what? 1.0

In this assay, the call recorded for "Oc1cc(O)c2c(c1)O[C@H](c1ccc(O)c(O)c1)[C@H](O)C2" was what? 0.0

In this assay, the call recorded for "Oc1cc(O)cc(/C=C/c2ccc(O)c(O)c2)c1" was what? 0.0

In this assay, the call recorded for "O=c1oc2cc(O)ccc2c2oc3cc(O)ccc3c12" was what? 0.0

In this assay, the call recorded for "Oc1cc(O)c2c(c1)O[C@H](c1cc(O)c(O)c(O)c1)[C@H](O)C2" was what? 0.0

In this assay, the call recorded for "O=c1c(O)c(-c2ccc(O)c(O)c2)oc2cc(O)ccc12" was what? 0.0

----------
Test system: CCRIS mutagenicity, Ames/micronucleus/aberration tests
Assay: CCRIS mutagenicity studies
Details: Test System: AMES SALMONELLA TYPHIMURIUM; Strain/Indicator: TA100; Metabolic Activation: NONE; Method: STANDARD PLATE
From the text: The CCRIS database contains chemical records with carcinogenicity, mutagenicity, tumor promotion, and tumor inhibition test results. It was developed by the National Cancer Institute (NCI). Data are derived from studies cited in primary journals, current awareness tools, NCI reports, and other sources. Test results have been reviewed by experts in carcinogenesis and mutagenesis. CCRIS provides historical information from the years 1985 - 2011. It is no longer updated. […]
Active and inactive are the calls of the source. No rule for the calls is given here.
Respond using exactly one of the listed classes: yes = active, no = inactive

In this assay, the call recorded for "CC(C)(c1ccc(O)cc1)c1ccc(O)cc1" was what? no

In this assay, the call recorded for "O=c1oc2cc(O)ccc2c2oc3cc(O)ccc3c12" was what? no

In this assay, the call recorded for "CCOS(=O)(=O)OCC" was what? yes

In this assay, the call recorded for "Nc1ccc(S(N)(=O)=O)cc1" was what? no

In this assay, the call recorded for "COc1cccc2c1C(=O)c1c(O)c3c(c(O)c1C2=O)C[C@@](O)(C(C)=O)C[C@@H]3O[C@H]1C[C@H](N)[C@H](O)[C@H](C)O1" was what? yes

In this assay, the call recorded for "C=C(Br)C(C)=O" was what? yes

In this assay, the call recorded for c1ccc(-c2ccc(OCC3CO3)cc2)cc1 (stereo unspecified) was what? yes

In this assay, the call recorded for "CNC(=O)ON" was what? yes

In this assay, the call recorded for "CN1CCN(c2ccc3nc(CCCCCCc4ccc5nc(-c6ccc(N(CCCl)CCCl)cc6)[nH]c5c4)[nH]c3c2)CC1" was what? no

In this assay, the call recorded for "COc1c(O)c2c(c3cc(C(=O)N4CCc5c4c(O)c(OC)c4[nH]c(C(=O)N6C[C@H]7C[C@@]78C6=CC(=O)c6[nH]cc(C)c68)cc54)[nH]c13)CCN2C(N)=O" was what? no

In this assay, the call recorded for "Cc1ncc([N+](=O)[O-])n1CC(=O)O" was what? yes
